The values you see were collected from the NIST ThermoML archive (doi:10.1021/je900482x).

Assay: isobaric coefficient of expansion
Conditions: 318.15 K; 30000 kPa; Liquid; Microcalorimeter
MEASURED PROPERTY: isobaric coefficient of expansion

The recorded isobaric coefficient of expansion for CCCCCCn1cc[n+](C)c1.F[B-](F)(F)F [1-hexyl-3-methylimidazolium tetrafluoroborate] is 0.00056 1/K

In plain terms, CCn1cc[n+](C)c1.O=S(=O)([N-]S(=O)(=O)C(F)(F)F)C(F)(F)F has a documented isobaric coefficient of expansion of 0.000607 1/K

GET /value?item= CCn1cc[n+](C)c1.F[B-](F)(F)F [1-ethyl-3-methylimidazolium tetrafluoroborate] &field=isobaric coefficient of expansion returns 0.000556 1/K

Reported isobaric coefficient of expansion ( CCCC[n+]1cccc(C)c1.F[B-](F)(F)F [1-butyl-3-methylpyridinium tetrafluoroborate] ) = 0.000554 1/K

The recorded isobaric coefficient of expansion for CCCCCC[n+]1ccn(C)c1.O=S(=O)([N-]S(=O)(=O)C(F)(F)F)C(F)(F)F is 0.000606 1/K

CCCCCCCC[n+]1ccn(C)c1.F[B-](F)(F)F [1-methyl-3-octylimidazolium tetrafluoroborate] yielded isobaric coefficient of expansion of 0.00056 1/K

====

Assay: isobaric coefficient of expansion
Settings: 328.15 K; 40000 kPa; Liquid; Microcalorimeter
MEASURED PROPERTY: isobaric coefficient of expansion

What the record says about CCCC[n+]1cccc(C)c1.F[B-](F)(F)F [1-butyl-3-methylpyridinium tetrafluoroborate] : isobaric coefficient of expansion is 0.000539 1/K

Briefly, isobaric coefficient of expansion measured for CCCCCCn1cc[n+](C)c1.F[B-](F)(F)F [1-hexyl-3-methylimidazolium tetrafluoroborate] : 0.00054 1/K

GET /value?item= CCn1cc[n+](C)c1.F[B-](F)(F)F [1-ethyl-3-methylimidazolium tetrafluoroborate] &field=isobaric coefficient of expansion returns 0.000537 1/K

Just so you know, measured isobaric coefficient of expansion for CCCCCCCC[n+]1ccn(C)c1.F[B-](F)(F)F [1-methyl-3-octylimidazolium tetrafluoroborate] came out at 0.00054 1/K

Measured isobaric coefficient of expansion, CCCCCC[n+]1ccn(C)c1.O=S(=O)([N-]S(=O)(=O)C(F)(F)F)C(F)(F)F : 0.000582 1/K

// isobaric coefficient of expansion lookup, compound = CCn1cc[n+](C)c1.O=S(=O)([N-]S(=O)(=O)C(F)(F)F)C(F)(F)F , result: 0.000584 1/K

====

Would you mind telling me the reported isobaric coefficient of expansion of each entry?
Experiment: isobaric coefficient of expansion
Conditions: 298.15 K; 30000 kPa; Liquid; Microcalorimeter

Notebook: CCCCCC[n+]1ccn(C)c1.O=S(=O)([N-]S(=O)(=O)C(F)(F)F)C(F)(F)F , isobaric coefficient of expansion read as 0.000615 1/K

Documented isobaric coefficient of expansion of CCCCCCCC[n+]1ccn(C)c1.F[B-](F)(F)F [1-methyl-3-octylimidazolium tetrafluoroborate] : 0.000573 1/K

Record CCCC[n+]1cccc(C)c1.F[B-](F)(F)F [1-butyl-3-methylpyridinium tetrafluoroborate] . Reported isobaric coefficient of expansion: 0.000566 1/K

# isobaric coefficient of expansion (molecule: CCn1cc[n+](C)c1.F[B-](F)(F)F [1-ethyl-3-methylimidazolium tetrafluoroborate] ) is 0.000568 1/K

Query CCCCCCn1cc[n+](C)c1.F[B-](F)(F)F [1-hexyl-3-methylimidazolium tetrafluoroborate] yields isobaric coefficient of expansion of 0.000573 1/K

Entry CCn1cc[n+](C)c1.O=S(=O)([N-]S(=O)(=O)C(F)(F)F)C(F)(F)F , isobaric coefficient of expansion reported as 0.000617 1/K

====

Assay: isobaric coefficient of expansion
Conditions: 308.15 K; 20000 kPa; Liquid; Microcalorimeter
MEASURED PROPERTY: isobaric coefficient of expansion

Reported isobaric coefficient of expansion of CCCC[n+]1cccc(C)c1.F[B-](F)(F)F [1-butyl-3-methylpyridinium tetrafluoroborate] : 0.000569 1/K

isobaric coefficient of expansion measured on CCn1cc[n+](C)c1.F[B-](F)(F)F [1-ethyl-3-methylimidazolium tetrafluoroborate] = 0.000573 1/K

Short answer for CCCCCCn1cc[n+](C)c1.F[B-](F)(F)F [1-hexyl-3-methylimidazolium tetrafluoroborate] : isobaric coefficient of expansion was 0.000579 1/K

// sample CCn1cc[n+](C)c1.O=S(=O)([N-]S(=O)(=O)C(F)(F)F)C(F)(F)F , its isobaric coefficient of expansion was 0.000627 1/K

For CCCCCC[n+]1ccn(C)c1.O=S(=O)([N-]S(=O)(=O)C(F)(F)F)C(F)(F)F the compound record lists isobaric coefficient of expansion as 0.000628 1/K

Query CCCCCCCC[n+]1ccn(C)c1.F[B-](F)(F)F [1-methyl-3-octylimidazolium tetrafluoroborate] yields isobaric coefficient of expansion of 0.000579 1/K

====

For each entry below, report its isobaric coefficient of expansion value.
Assay: isobaric coefficient of expansion
Conditions: 298.15 K; 40000 kPa; Liquid; Microcalorimeter

get_value(item= CCCCCC[n+]1ccn(C)c1.O=S(=O)([N-]S(=O)(=O)C(F)(F)F)C(F)(F)F , readout=isobaric coefficient of expansion) returns 0.000596 1/K

isobaric coefficient of expansion recorded for this compound, CCn1cc[n+](C)c1.F[B-](F)(F)F [1-ethyl-3-methylimidazolium tetrafluoroborate] , is 0.000554 1/K

// CCCCCCn1cc[n+](C)c1.F[B-](F)(F)F [1-hexyl-3-methylimidazolium tetrafluoroborate] : isobaric coefficient of expansion value = 0.000558 1/K

isobaric coefficient of expansion measured on CCn1cc[n+](C)c1.O=S(=O)([N-]S(=O)(=O)C(F)(F)F)C(F)(F)F = 0.0006 1/K

Note to self: isobaric coefficient of expansion recorded for CCCC[n+]1cccc(C)c1.F[B-](F)(F)F [1-butyl-3-methylpyridinium tetrafluoroborate] was 0.000556 1/K

What the record says about CCCCCCCC[n+]1ccn(C)c1.F[B-](F)(F)F [1-methyl-3-octylimidazolium tetrafluoroborate] : isobaric coefficient of expansion is 0.000558 1/K

====

Assay: isobaric coefficient of expansion
Settings: 298.15 K; 45000 kPa; Liquid; Microcalorimeter
Exercise: state measured isobaric coefficient of expansion for each of the compounds provided.

So, CCCC[n+]1cccc(C)c1.F[B-](F)(F)F [1-butyl-3-methylpyridinium tetrafluoroborate] ? Its isobaric coefficient of expansion was 0.000551 1/K

Record summary for CCn1cc[n+](C)c1.O=S(=O)([N-]S(=O)(=O)C(F)(F)F)C(F)(F)F : reported isobaric coefficient of expansion = 0.000595 1/K

// isobaric coefficient of expansion lookup, compound = CCCCCC[n+]1ccn(C)c1.O=S(=O)([N-]S(=O)(=O)C(F)(F)F)C(F)(F)F , result: 0.00059 1/K

The reported isobaric coefficient of expansion of the compound CCn1cc[n+](C)c1.F[B-](F)(F)F [1-ethyl-3-methylimidazolium tetrafluoroborate] was 0.000549 1/K

In plain terms, CCCCCCn1cc[n+](C)c1.F[B-](F)(F)F [1-hexyl-3-methylimidazolium tetrafluoroborate] has a documented isobaric coefficient of expansion of 0.000552 1/K

# isobaric coefficient of expansion (compound: CCCCCCCC[n+]1ccn(C)c1.F[B-](F)(F)F [1-methyl-3-octylimidazolium tetrafluoroborate] ) is 0.000552 1/K

====

Please go through the items and note down their isobaric coefficient of expansion.
Assay: isobaric coefficient of expansion
Conditions: 318.15 K; 10000 kPa; Liquid; Microcalorimeter

compound CCCCCC[n+]1ccn(C)c1.O=S(=O)([N-]S(=O)(=O)C(F)(F)F)C(F)(F)F , isobaric coefficient of expansion observed: 0.000647 1/K

Lab note: measured isobaric coefficient of expansion of CCCC[n+]1cccc(C)c1.F[B-](F)(F)F [1-butyl-3-methylpyridinium tetrafluoroborate] was 0.000578 1/K

For CCn1cc[n+](C)c1.O=S(=O)([N-]S(=O)(=O)C(F)(F)F)C(F)(F)F the compound record lists isobaric coefficient of expansion as 0.000644 1/K

Measured isobaric coefficient of expansion of CCCCCCn1cc[n+](C)c1.F[B-](F)(F)F [1-hexyl-3-methylimidazolium tetrafluoroborate] : 0.000594 1/K

The compound identified as CCn1cc[n+](C)c1.F[B-](F)(F)F [1-ethyl-3-methylimidazolium tetrafluoroborate] registered its isobaric coefficient of expansion at 0.000585 1/K

isobaric coefficient of expansion recorded for this compound, CCCCCCCC[n+]1ccn(C)c1.F[B-](F)(F)F [1-methyl-3-octylimidazolium tetrafluoroborate] , is 0.000594 1/K

====

Test: isobaric coefficient of expansion
Conditions: 288.15 K; 5000 kPa; Liquid; Microcalorimeter
Please go through the items and note down their isobaric coefficient of expansion.

Please fill in: isobaric coefficient of expansion reported for CCn1cc[n+](C)c1.F[B-](F)(F)F [1-ethyl-3-methylimidazolium tetrafluoroborate] = 0.000614 1/K

The recorded isobaric coefficient of expansion for CCn1cc[n+](C)c1.O=S(=O)([N-]S(=O)(=O)C(F)(F)F)C(F)(F)F is 0.000664 1/K

Record summary for CCCCCC[n+]1ccn(C)c1.O=S(=O)([N-]S(=O)(=O)C(F)(F)F)C(F)(F)F : reported isobaric coefficient of expansion = 0.000668 1/K

Sure, the documented isobaric coefficient of expansion for CCCC[n+]1cccc(C)c1.F[B-](F)(F)F [1-butyl-3-methylpyridinium tetrafluoroborate] is 0.0006 1/K

Measured isobaric coefficient of expansion of CCCCCCCC[n+]1ccn(C)c1.F[B-](F)(F)F [1-methyl-3-octylimidazolium tetrafluoroborate] : 0.000616 1/K

The compound CCCCCCn1cc[n+](C)c1.F[B-](F)(F)F [1-hexyl-3-methylimidazolium tetrafluoroborate] showed isobaric coefficient of expansion equal to 0.000616 1/K
